Where do the numbers come from? From paper PMC8426238.

# study_target: hERG potassium channel (Homo sapiens)
# Construct: purchased Eurofins Panlabs Discovery Services (Taiwan)
# Sequence (Q12809 whole entry): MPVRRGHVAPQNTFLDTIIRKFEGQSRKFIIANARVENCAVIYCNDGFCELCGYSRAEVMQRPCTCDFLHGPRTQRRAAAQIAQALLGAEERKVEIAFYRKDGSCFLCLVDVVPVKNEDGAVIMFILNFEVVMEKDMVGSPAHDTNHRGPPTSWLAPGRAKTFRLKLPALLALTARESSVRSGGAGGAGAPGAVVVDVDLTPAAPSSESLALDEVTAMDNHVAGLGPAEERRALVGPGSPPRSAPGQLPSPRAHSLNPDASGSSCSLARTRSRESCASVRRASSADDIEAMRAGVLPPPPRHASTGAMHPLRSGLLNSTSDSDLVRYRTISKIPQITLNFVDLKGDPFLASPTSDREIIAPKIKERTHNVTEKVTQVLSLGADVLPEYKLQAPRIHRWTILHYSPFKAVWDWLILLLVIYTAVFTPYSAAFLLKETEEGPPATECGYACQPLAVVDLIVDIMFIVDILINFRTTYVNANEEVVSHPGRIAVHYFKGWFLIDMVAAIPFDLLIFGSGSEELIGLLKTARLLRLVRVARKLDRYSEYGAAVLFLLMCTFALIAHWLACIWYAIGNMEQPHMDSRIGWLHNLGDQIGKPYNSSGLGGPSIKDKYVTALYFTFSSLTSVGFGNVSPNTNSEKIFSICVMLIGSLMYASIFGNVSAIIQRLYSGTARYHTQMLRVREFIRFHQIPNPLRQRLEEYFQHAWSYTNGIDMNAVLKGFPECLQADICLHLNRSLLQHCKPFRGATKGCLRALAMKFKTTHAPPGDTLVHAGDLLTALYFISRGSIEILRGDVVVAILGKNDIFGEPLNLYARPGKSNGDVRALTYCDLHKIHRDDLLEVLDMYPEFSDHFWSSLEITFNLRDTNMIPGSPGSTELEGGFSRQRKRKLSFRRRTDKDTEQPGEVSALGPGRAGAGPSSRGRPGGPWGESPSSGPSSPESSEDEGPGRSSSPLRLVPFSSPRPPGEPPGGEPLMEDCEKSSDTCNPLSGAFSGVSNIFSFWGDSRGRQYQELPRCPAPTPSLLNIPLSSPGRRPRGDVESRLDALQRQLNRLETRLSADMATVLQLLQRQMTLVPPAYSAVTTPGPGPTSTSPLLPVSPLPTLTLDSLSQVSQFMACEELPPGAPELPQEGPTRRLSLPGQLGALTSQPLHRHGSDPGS
# assay: off-target screen panel
# Assay type: binding
# conditions_used: human recombinant hERG potassium channel, probe [^3H]Astemizole
recorded_metric: inhibition at 1 µM (%)
Kindly answer with a numeric value in %, unit omitted.

### Prompt Any idea what its inhibition at 1 µM is? The compound is C[C@@H]1CC[C@H](C)N(c2nnc3c(N)ncc(C#N)n23)C1 (relative stereo) [MTP38]
### Response 17

====

# study_target: PDE7B (Homo sapiens, UniProt Q9NP56)
# Construct: purchased Eurofins Panlabs Discovery Services (Taiwan)
# Sequence (Q9NP56 whole entry): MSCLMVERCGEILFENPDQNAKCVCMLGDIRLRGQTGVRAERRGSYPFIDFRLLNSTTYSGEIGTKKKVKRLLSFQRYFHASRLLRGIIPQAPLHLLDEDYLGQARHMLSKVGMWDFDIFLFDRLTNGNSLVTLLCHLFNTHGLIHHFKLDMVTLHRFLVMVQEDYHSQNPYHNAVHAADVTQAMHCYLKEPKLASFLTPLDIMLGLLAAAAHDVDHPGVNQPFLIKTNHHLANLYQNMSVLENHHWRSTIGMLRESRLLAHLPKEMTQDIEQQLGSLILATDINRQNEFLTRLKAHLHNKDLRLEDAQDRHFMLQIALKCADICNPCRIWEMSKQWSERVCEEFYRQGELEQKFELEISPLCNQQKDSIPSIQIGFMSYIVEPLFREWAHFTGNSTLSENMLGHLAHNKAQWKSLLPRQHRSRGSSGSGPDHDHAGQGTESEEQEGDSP
# assay: PDE isozyme inhibition screen panel (Eurofins Panlabs)
# Assay type: biochemical
# conditions_used: human recombinant; geometric mean of three independent experiments
recorded_metric: IC50 (nM)
Kindly answer with a numeric value in nM, unit omitted.

### Prompt Any idea what its IC50 is? The molecule is C[C@@H]1CC[C@H](C)N(c2nnc3c(N)ncc(C#N)n23)C1 (relative stereo)
### Response 1.21

====

# study_target: PDE7B (Homo sapiens, UniProt Q9NP56)
recorded_metric: Ki

### Prompt Any idea what its Ki is? The compound is C[C@@H]1CC[C@H](C)N(c2nnc3c(N)ncc(C#N)n23)C1 (relative stereo)
### Response 0.28 to 0.5 nM
